System: Enterococcus faecalis
Assay: Antibacterial activity against Enterococcus faecalis at 900 ug/ml after overnight incubation
Format: functional
Settings: read-out: IZ
For each entry below, report its zone of inhibition at 900 µg/mL value.
Just the number please, in mm, no unit attached.

Can you look up zone of inhibition at 900 µg/mL on Enterococcus faecalis for "CC(C)(C)c1cc(-c2nnc(CN3CCC(n4nc5ccccc5n4)CC3)o2)cc(C(C)(C)C)c1" ?
11.6

So what zone of inhibition at 900 µg/mL did "O=[N+]([O-])c1ccc(-c2nnc(CN3CCC(n4nc5ccccc5n4)CC3)o2)cc1Cl" get with Enterococcus faecalis?
7.25

Write down the reported zone of inhibition at 900 µg/mL of "Brc1cccc(-c2nnc(CN3CCC(n4nc5ccccc5n4)CC3)o2)c1" , test system: Enterococcus faecalis.
5.8

State its zone of inhibition at 900 µg/mL on Enterococcus faecalis: "Fc1cccc(-c2nnc(CN3CCC(n4nc5ccccc5n4)CC3)o2)c1F"
5.36

So what zone of inhibition at 900 µg/mL did "c1ccc(-c2nnc(CN3CCC(n4nc5ccccc5n4)CC3)o2)cc1" get with Enterococcus faecalis?
9.25
